Test: gradient 5% acetonitrile 3 min, to 50% in 2 min, to 85% in 15 min, held 3 min, 100 µL/min
Conditions: column: Zorbax Extend-C18 2.1 x 50 mm; eluents: water / acetonitrile, 0.1% formic acid
Please use Condition met for RP-LC retention time under 700 s and Condition not met for everything else, ties included.

COMPOUND | ASSIGNED CATEGORY
COc1ccccc1-c1nc(-c2ccc(S(=O)(=O)N3CCC(C)CC3)cc2)no1 | Condition not met
COCCNS(=O)(=O)c1ccc(-c2c(C)noc2C)cc1 | Condition not met
CCCNc1cc(N2CCC(CCC(=O)NC3CC3)CC2)ncn1 | Condition met
Cc1ccc(NC(=O)C2CCN(S(=O)(=O)c3ccc4c(c3)sc(=O)n4C)CC2)cc1F | Condition not met
Cc1nn(C(C)C(=O)NCCCN2CCCC2=O)c(=O)c2nn(-c3ccccc3)c(C)c12 (stereo not given) | Condition met
CC(=O)N1C[C@@H]2CCCN3CCC[C@@H]([C@H]23)[C@H]1CCCC(=O)NCC(C)C | Condition met
COCc1cc(=O)n2c(n1)N(Cc1cccc(C#N)c1)CC2 | Condition met
O=C(Nc1cccc(-c2cn3cccnc3n2)c1)c1cccc(Br)c1 | Condition not met
COCc1cc(=O)n(CC(=O)Nc2cccc(Cl)c2)c(N2CCOCC2)n1 | Condition not met

* * *

Test: gradient 5% acetonitrile 3 min, to 50% in 2 min, to 85% in 15 min, held 3 min, 100 µL/min
Settings: column: Zorbax Extend-C18 2.1 x 50 mm; eluents: water / acetonitrile, 0.1% formic acid

COMPOUND | RP-LC retention time / s
Cc1nc(-c2ccc3c(c2)CCN3C(=O)Cc2ccsc2)cs1 | 980
Cc1cc(-c2nnc(-c3ccccc3)o2)c(C)n1CC(=O)NCc1cccc(Cl)c1 | 973
O=c1n(Cc2ccc(F)cc2)nc2ccc(S(=O)(=O)N3CCc4ccccc4C3)cn12 | 983
CCn1c(=O)n(CC)c2cc(S(=O)(=O)C3CCCCC3)c(NC(C)=O)cc21 | 791
CCOC(=O)C1CCN(c2cc3c(cc2NC(=O)NCC(C)C)n(C)c(=O)n3C)CC1 | 685
Brc1cccc(-c2nc3cnccn3c2NC2CCCCC2)c1 | 1130
O=C(NC1CCCCCCC1)C1CCCN(S(=O)(=O)c2c[nH]c(C(=O)N3CCCCCC3)c2)C1 (stereo not given) | 980
COc1cccc(CNC(=O)C2CCN(c3cc(N4CCSCC4)ncn3)CC2)c1 | 656
CCc1ccccc1N(C)C(=O)Cc1c(C(=O)O)c(C)cn1C | 815
Cc1cccc(NC(=O)N(C)CCc2noc(COc3ccccc3)n2)c1 | 927
CC(C)n1c(=O)oc2cc(-c3noc(-c4cccc(C#N)c4)n3)ccc21 | 1090
O=C1CCN(S(=O)(=O)c2ccccc2)CCCN(C(=O)C2(c3ccccc3)CC2)CCN1 | 758
CCn1c(-c2cccc(C(N)=O)c2)nc2cccnc21 | 591
Cc1cc(OCC(=O)N2CCCCC2CCN2CCOCC2)ccc1Cl (stereo not given) | 689
CCCN1C(=O)c2cc(C(=O)NCc3ccccc3)nn2CC1(C)C(=O)NC1CCCC1 (stereo not given) | 605
CN(C)C(=O)c1ccc2c(c1)N(CC(=O)NCCc1c[nH]c3ccccc13)C(=O)C1CCCCN21 (stereo not given) | 781
O=C(NC1CCCCCC1)c1ccc(Cn2cncn2)cc1 | 714
O=C(NCCCCCCNC(=O)ON=C1CCCCC1)ON=C1CCCCC1 | 926
CCOC(=O)CCNC(=O)N1CCCC(Cn2cnc3cccnc32)C1 (stereo not given) | 604
Cc1ccc(C(=O)N2C[C@@H](F)C[C@H]2C(=O)N2CCc3ccccc3C2)s1 | 800

* * *

Assay: gradient 5% acetonitrile 3 min, to 50% in 2 min, to 85% in 15 min, held 3 min, 100 µL/min
Conditions: column: Zorbax Extend-C18 2.1 x 50 mm; eluents: water / acetonitrile, 0.1% formic acid
Everything with RP-LC retention time lower than 700 s is Criterion not met; everything else, including exactly 700 s, is Criterion met.

COMPOUND | ASSIGNED CATEGORY
CC1=C(C(=O)N(CC(=O)NCc2ccc(C)cc2)c2ccc(Cl)cc2)SCCO1 | Criterion met
CN1C(=O)c2cc(S(=O)(=O)Nc3ccc(F)cc3)ccc2Oc2cccnc21 | Criterion met
Cc1ccccc1Cn1cnc2c(cnn2CCNC(=O)Cn2cnc3ccccc32)c1=O | Criterion not met
Cc1ccc(CNC(=O)C2(C)CN(S(C)(=O)=O)CC(=O)N2c2ccc(Cl)cc2C)cc1 (centres undefined) | Criterion met
CCCNC(=O)c1nc2ccccn2c1-c1ccc(F)cc1 | Criterion met
O=S(=O)(c1ccc2nncn2c1)N(Cc1cccc(F)c1)c1cccc(F)c1 | Criterion met
Cc1ccc(-c2ncccc2CNS(=O)(=O)c2cccs2)cc1 | Criterion not met
CC(C)N(CCCNC(=O)Cn1cc2c(n1)CCCCC2)Cc1ccccc1 | Criterion not met
CC(Cc1cc2c(c(C(N)=O)c1)N(CCCO)CC2)NCCOc1ccccc1OCC(F)(F)F (centres undefined) | Criterion not met

* * *

Assay: gradient 5% acetonitrile 3 min, to 50% in 2 min, to 85% in 15 min, held 3 min, 100 µL/min
Conditions: column: Zorbax Extend-C18 2.1 x 50 mm; eluents: water / acetonitrile, 0.1% formic acid
List of RP-LC retention time values.

COMPOUND | RP-LC retention time [s]
CCOc1ccc(S(=O)(=O)N2CCC(C(=O)NCCc3csc(-c4ccccc4)n3)CC2)cc1 | 997
O=C(c1ccsc1)N1[C@H]2CC[C@@H]1c1cnc(-c3ccccc3)nc1C2 | 886
Cc1cccc(C(=O)Nc2nc(-c3ccc4c(c3)N(C)C(=O)C(C)O4)cs2)c1 (centres undefined) | 1050
CCc1nn2c(CNS(=O)(=O)c3cccc(Cl)c3)c(-c3ccccc3)nc2s1 | 971
Cc1nc(N2CCOCC2)cc(N2CCN(C(=O)c3ccc(Br)o3)CC2)n1 | 619
Cc1ccc(-c2noc(-c3ccccc3S(=O)(=O)NC3CCCC3)n2)cc1 | 1300
CCOC(=O)c1ccc(NC(=O)C2CCCN(c3nnc4c(Cl)cccn34)C2)cc1 (centres undefined) | 802
COc1cccc2c(Nc3ccccc3C)cc(C(=O)N3CCSCC3)nc12 | 689
CCN1C(=O)c2cccnc2Sc2cc(CNC(=O)c3ccc(C#N)cc3)ccc21 | 756
CCSc1nc2ccc(NS(=O)(=O)c3ccc(F)cc3Cl)cc2s1 | 1110
CC1Cc2ccccc2N1Cc1nnc(-c2ccccc2)o1 (centres undefined) | 972
CC(C)n1c(=O)sc2cc(S(=O)(=O)N3CCC(C(=O)Nc4ccc(F)cc4)CC3)ccc21 | 973
COc1cccc(N2CCN(C(=O)C3CCN(c4cncnc4N(C)C)CC3)CC2)c1 | 648
Cc1c(C(=O)N2CCOc3ccc(-c4ccc(N)nc4)cc3C2)ccc(S(C)(=O)=O)c1F | 643
Cc1ccccc1Cn1cc(C(=O)Nc2cccc(Br)c2)ccc1=O | 877
Cc1cc2nn(CC(=O)NCc3ccccc3)c(=O)n2c(-c2ccc(F)cc2)n1 | 781
CCOc1cc(Cl)c(S(=O)(=O)Nc2cccnc2)cc1Cl | 717
COC(=O)c1cc(S(=O)(=O)N2CCCC2C(=O)Nc2cc(OC)cc(OC)c2)cn1C (centres undefined) | 867
COc1ccc(C)cc1NC(=O)Cn1nc(C(=O)N2CCN(C)CC2)cc1C | 583

* * *

List of RP-LC retention time values.
Assay: gradient 5% acetonitrile 3 min, to 50% in 2 min, to 85% in 15 min, held 3 min, 100 µL/min
Conditions: column: Zorbax Extend-C18 2.1 x 50 mm; eluents: water / acetonitrile, 0.1% formic acid
OBSERVATION TYPE: RP-LC retention time (s)

COMPOUND | VALUE OBSERVED
CCn1cc(CN2CCC(C(=O)NC(C)CCc3ccccc3)CC2)c2cc(Cl)ccc21 (centres undefined) | 672
COC(=O)c1c(C)[nH]c(C(=O)N2CCCC(C(=O)NCc3cccc(Cl)c3)C2)c1C (centres undefined) | 798
Cc1ccc(OCC(=O)Nc2nnc(C3CC(=O)N(c4ccc(F)cc4)C3)o2)cc1 (centres undefined) | 792
COc1cc2c(cc1OC)C(C(=O)NCCCN1CCN(C)CC1)C(c1cccs1)N(C)C2=O (centres undefined) | 572
CC(C)(C)c1ccc(C(=O)Nc2nnc(-c3ccccn3)o2)cc1 | 751
C=C[C@@]1(C)CC(=O)[C@]2(O)[C@@]3(C)[C@H](O)CCC(C)(C)[C@@H]3[C@H](O)[C@H](OC(C)=O)[C@@]2(C)O1 | 1040
COc1ccc(-c2ncc3c(n2)CCN(S(=O)(=O)c2cccc(F)c2)C3)cc1 | 1060
CC(C)c1ccc(S(=O)(=O)N2CCC(C(=O)NCc3cscn3)CC2)cc1 | 805
CCOc1ccc(-n2ccn3cc(-c4ccc(C)cc4)nc3c2=O)cc1 | 879
Cc1ccsc1C(=O)Nc1cccn2nc(C3CCC3)nc12 | 1030
N#Cc1ccsc1NC(=O)c1ccc(S(=O)(=O)N2CCOCC2)cc1 | 749
CCc1cc(C2CCCN2C(=O)NCCc2ccccc2)on1 (centres undefined) | 789
Cc1cccc(C)c1NC(=O)Cn1cnc2nc(N3CCC(C(=O)NC(C)C)CC3)sc2c1=O | 666
O=C(NCCc1csc(C2CCCN(C(=O)CC3CCCC3)C2)n1)C1CC1 (centres undefined) | 757
Cn1nnnc1C1CCCN(S(=O)(=O)Cc2ccccc2F)C1 (centres undefined) | 757
Cc1c2c(cc3c1[nH]c1ccccc13)C=NCC2 | 630
CN(CC(=O)N1CCN(c2cccc(Cl)c2)CC1)S(=O)(=O)c1ccc2c(c1)CCCC(=O)N2 | 822
CCc1cc(=O)n(CC(=O)Nc2ccccc2CC)c(N)n1 | 610
CCC1CCCCN1C(=O)CN1CN(c2ccc(C)cc2)c2ncccc2S1(=O)=O (centres undefined) | 1030
